molecular target: Human TLR7 (Homo sapiens, UniProt Q9NYK1); construct: stably and individually express human TLR4, TLR7 or TLR9 full-length ORF cDNAs; assay: HEK-293 NFkB-luciferase reporter assay, CL097 stimulation; details: ligand CL097
Sequence (Q9NYK1 27-1049): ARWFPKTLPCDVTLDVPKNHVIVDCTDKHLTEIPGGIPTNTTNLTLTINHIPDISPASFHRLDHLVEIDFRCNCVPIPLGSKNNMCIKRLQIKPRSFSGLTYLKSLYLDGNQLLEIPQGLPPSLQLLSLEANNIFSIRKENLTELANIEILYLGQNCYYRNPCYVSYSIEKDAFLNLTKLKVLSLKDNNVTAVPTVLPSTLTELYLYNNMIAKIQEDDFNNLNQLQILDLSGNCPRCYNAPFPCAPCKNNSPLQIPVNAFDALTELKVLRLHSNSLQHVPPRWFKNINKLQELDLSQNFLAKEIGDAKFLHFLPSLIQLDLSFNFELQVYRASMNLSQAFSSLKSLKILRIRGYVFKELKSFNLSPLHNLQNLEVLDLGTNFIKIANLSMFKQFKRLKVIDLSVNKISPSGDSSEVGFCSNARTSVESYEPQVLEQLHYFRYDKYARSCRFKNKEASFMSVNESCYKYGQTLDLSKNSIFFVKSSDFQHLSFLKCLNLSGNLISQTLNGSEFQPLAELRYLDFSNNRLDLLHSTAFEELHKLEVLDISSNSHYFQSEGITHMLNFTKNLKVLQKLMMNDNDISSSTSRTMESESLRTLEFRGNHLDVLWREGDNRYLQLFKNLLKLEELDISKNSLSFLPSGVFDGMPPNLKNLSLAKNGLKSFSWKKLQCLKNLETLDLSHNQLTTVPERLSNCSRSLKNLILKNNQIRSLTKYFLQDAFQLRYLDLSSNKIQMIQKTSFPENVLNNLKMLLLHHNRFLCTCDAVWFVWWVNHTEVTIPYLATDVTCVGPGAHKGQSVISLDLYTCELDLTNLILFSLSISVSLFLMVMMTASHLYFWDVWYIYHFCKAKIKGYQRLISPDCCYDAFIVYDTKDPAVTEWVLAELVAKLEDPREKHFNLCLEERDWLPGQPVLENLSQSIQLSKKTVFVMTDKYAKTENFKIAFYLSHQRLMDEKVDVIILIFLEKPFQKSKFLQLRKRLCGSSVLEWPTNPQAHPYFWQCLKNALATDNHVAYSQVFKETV
Property Measured: IC50 (nM)
Give a bare numeral; the unit nM is implied.

Briefly, IC50 measured for C[C@H]1C[C@@H](N)CN(c2ccc(C#N)c3ncccc23)C1 [ER-888840] : 0.2

----------
biological target: Human TLR9 (Homo sapiens, UniProt Q9NR96); test: Human PBMC cell-based assay, CpG-ODN stimulation, IL-6; parameters: endogenous in cells; host or cells: primary human PBMC from healthy donors; settings: Hu PBMC; ligand CpG-ODN
Sequence (Q9NR96 26-1032): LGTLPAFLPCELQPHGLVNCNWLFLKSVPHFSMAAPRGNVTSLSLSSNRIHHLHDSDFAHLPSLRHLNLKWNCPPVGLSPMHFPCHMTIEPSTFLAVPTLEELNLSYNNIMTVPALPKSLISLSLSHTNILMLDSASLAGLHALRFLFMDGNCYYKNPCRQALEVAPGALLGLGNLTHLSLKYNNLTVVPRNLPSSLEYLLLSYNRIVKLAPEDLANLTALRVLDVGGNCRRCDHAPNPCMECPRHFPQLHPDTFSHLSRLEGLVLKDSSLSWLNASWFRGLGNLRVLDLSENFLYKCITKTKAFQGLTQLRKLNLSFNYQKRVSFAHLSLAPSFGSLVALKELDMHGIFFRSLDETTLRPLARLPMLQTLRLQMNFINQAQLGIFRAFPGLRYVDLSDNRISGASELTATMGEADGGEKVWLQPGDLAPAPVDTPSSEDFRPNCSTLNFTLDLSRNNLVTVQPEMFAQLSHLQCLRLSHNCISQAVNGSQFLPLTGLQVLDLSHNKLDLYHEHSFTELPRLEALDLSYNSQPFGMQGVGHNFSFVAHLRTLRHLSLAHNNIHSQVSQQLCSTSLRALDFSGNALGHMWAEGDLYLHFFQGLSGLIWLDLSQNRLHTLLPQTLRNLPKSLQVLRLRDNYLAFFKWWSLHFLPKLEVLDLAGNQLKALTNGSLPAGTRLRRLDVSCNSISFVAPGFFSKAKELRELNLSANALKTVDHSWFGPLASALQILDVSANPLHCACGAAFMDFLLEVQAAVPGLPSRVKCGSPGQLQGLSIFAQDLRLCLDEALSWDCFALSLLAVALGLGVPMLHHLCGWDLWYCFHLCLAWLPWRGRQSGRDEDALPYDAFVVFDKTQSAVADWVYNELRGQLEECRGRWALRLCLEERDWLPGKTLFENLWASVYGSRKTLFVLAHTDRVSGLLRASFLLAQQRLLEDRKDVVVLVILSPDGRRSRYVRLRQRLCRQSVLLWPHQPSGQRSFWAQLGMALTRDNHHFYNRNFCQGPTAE
pIC50: −log10 of the molar value.
Property Measured: pIC50

Reported pIC50 ( CCN(CCO)CCCC(C)Nc1ccnc2cc(Cl)ccc12 (stereo not shown) [HCQ, Hydroxychloroquine] ) = 6.52 to 6.82
